system: MALME-3M melanoma; test: NCI-60 one-dose screen, 48 h (100 = growth as untreated, 0 = no growth, -100 = all killed); settings: 10 µM unless noted
The panel holds about 83,000 compounds, 20% with a hit somewhere; the sample as a whole holds those more often.
Binary label based on growth with cut-off 80%: below gives Y, not below gives N.

Field: example entries. Status: answers known.
chemicalStructure: C=C1C(=O)O[C@H]2[C@H]1CC/C(COC(=O)NCc1ccc(Cn3c(=O)sn(CCCI)c3=O)cc1)=C\CC[C@@]1(C)O[C@@H]21
system: MALME-3M melanoma
categoryLabel: Y

chemicalStructure: COc1cc(/C=C2\C(=O)N(CCCCn3c4ccccc4c(=O)c4ccccc43)c3ccccc32)cc(OC)c1O
system: MALME-3M melanoma
categoryLabel: Y

chemicalStructure: Clc1nccc2c(-c3csc(-c4c[nH]c5ccc(Br)cc45)n3)c[nH]c12
system: MALME-3M melanoma
categoryLabel: Y

chemicalStructure: Cc1oc2c(Cc3ccc(NC(=O)c4ccc(Cl)cc4)cc3)ncnc2c1C(=O)NO
system: MALME-3M melanoma
categoryLabel: N

chemicalStructure: OCCN1CCN(CC/C=C2\c3ccccc3Sc3ccc(Cl)cc32)CC1
system: MALME-3M melanoma
categoryLabel: Y

chemicalStructure: O=C(N=Nc1c(O)[nH]c2ccccc12)Nc1ccccc1Cl
system: MALME-3M melanoma
categoryLabel: N

chemicalStructure: O=C1/C(=C/c2cn(-c3ccccc3)nc2-c2ccccc2)SC(=S)N1c1ccc(Cl)cc1
system: MALME-3M melanoma
categoryLabel: N

Now for another entry.
Here's an entry: `COc1c(F)cc(-n2c(C(=O)N3CC(F)C3)cc3cccnc32)cc1F` . Is its growth below 80%?
N

---

tested on: OVCAR-4 ovarian; assay: NCI-60 one-dose screen, 48 h; conditions: 10 µM unless noted
The panel holds about 83,000 compounds, 20% with a hit somewhere; the sample as a whole holds those more often. The source made the active and inactive calls. The calls were made as follows: active = growth percent below 10; inactive = the rest.
One label from this list, please: active, inactive

Field: example entries. Status: answers known.
compound: CCOC(=O)c1c(-c2ccc(OC)cc2)c(C#N)c2c(C#N)c(N)nn2c1N
categoryLabel: inactive
--
compound: COc1ccc(-c2ccc(-c3ccc(C(=N)N)cn3)s2)cc1Cl
categoryLabel: active
--
compound: N=C1/C(=C2\NC3C=CC=CC3S2)C(c2ccc(Cl)cc2)C2C(=O)N(c3ccccc3)C(=S)N12 (stereo unspecified)
categoryLabel: inactive
--
compound: C#CCn1cnc2cnc(Nc3cccc(NC(=O)CCl)c3)nc21
categoryLabel: inactive

Answer briefly: the call reported for `Cc1ccc2[nH]c(=S)[nH]c(=O)c2c1` in this assay.
inactive

Answer briefly: the call reported for `Cc1nc2cccc(NCCCCC(=O)NO)c2c(=O)n1-c1ccccc1` in this assay.
inactive

Answer briefly: the call reported for `Cc1ccc(NC(=O)N/C(N)=N/c2nc(=O)c3ccccc3s2)cc1` in this assay.
inactive

Answer briefly: the call reported for `Cn1cc(-c2nc3c(F)cc4[nH]ncc4c3c3c2CCCC3)c(C(F)F)n1` in this assay.
inactive

Answer briefly: the call reported for `CC(C)(C)CC(N)=O` in this assay.
inactive

Answer briefly: the call reported for `CC(=O)OC[C@]12CCC(C)(C)C=C1[C@H]1CC[C@@H]3[C@@]4(C)CCCNC(C)(C)[C@@H]4CC[C@@]3(C)[C@]1(C)CC2` in this assay.
inactive

Answer briefly: the call reported for `O=c1c(/C=C/c2ccco2)nnc2sc(Nc3ccc(Cl)cc3)nn12` in this assay.
inactive

Answer briefly: the call reported for C#CCOCC1CN(C)C(=O)O1 (stereo unspecified) in this assay.
inactive

Answer briefly: the call reported for `COc1ccc(-c2c[nH]c(C(=O)O)c2-c2cc(OC)c(OC)c(OC)c2)cc1` in this assay.
inactive

---

Tested on: TK-10 renal
Test: NCI-60 one-dose screen, 48 h (100 = growth as untreated, 0 = no growth, -100 = all killed)
Settings: 10 µM unless noted
Description: Growth inhibition of the TK-10 human tumor cell line is measured as a screen for anti-cancer activity. Cells are grown in 96 well plates and exposed to the test compound for 48 hours. Compounds are tested at a single concentration, which is 10^-5 M for most compounds. The reported endpoint is percent growth (GI% or GIPRCNT), where numbers from 0 - 100% represent growth inhibition, and numbers from -100% - 0 represent cell death. For example, a value of 40 represents 60% growth inhibition. […]
Compounds without any hit were thinned out: in the full panel of roughly 83,000, 20% have a hit.
Would you please tag the item y when its growth is 80% or above, and n when it is below?

Field: example entries. Status: answers known.
molecule: O=C(NNc1ccccc1)c1ccccc1
categoryLabel: n

molecule: C=C[C@]1(C)C=C2CC[C@@H]3C(C)(C)C(=O)CC[C@@]3(C)[C@@H]2CC1
categoryLabel: y

molecule: COc1ccc2c(c1)CC[C@@H]1[C@@H]2CC[C@]2(C)C3C(=CCC4C(=O)N(c5ccccc5)C(=O)C43)C[C@@H]12 (stereo not given in full)
categoryLabel: y

Now for another entry.
Does the reported growth for `O=C1/C(=C/c2ccccc2)CN(C(=O)C(Cl)Cl)C/C1=C\c1ccccc1` fall at or above the 80% mark?
n

---

// reported growth for each item listed
system: UACC-257 melanoma; test: NCI-60 one-dose screen, 48 h (100 = growth as untreated, 0 = no growth, -100 = all killed); conditions: 10 µM unless noted
Compounds without any hit were thinned out: in the full panel of roughly 83,000, 20% have a hit. Calls of active or inactive are those of the source. How the source made its calls: active means growth percent below 10; inactive means the rest.

# count of solved cases: 10
molecule: CN1C(=O)/C(=C/c2ccc(C(=O)Nc3ncc(Cc4ccccc4Cl)s3)cc2)SC1=S
growth: 89.3% (inactive)

molecule: COC1=CC(=O)C(OC)=C(O)C1=O
growth: 97.4% (inactive)

molecule: Cc1ccc(C(=O)Nc2nc3c(s2)CN(Cc2ccccc2)CC3)cn1
growth: 92.9% (inactive)

molecule: CONC1=Nc2cc(NC(N)=NCc3ccccc3)c(N(C)C3CCCCC3)cc2OC1
growth: 89.5% (inactive)

molecule: O=C(c1cccc(Br)c1)N1CCN(c2ccnc3cc(Cl)ccc23)CC1
growth: 85.8% (inactive)

molecule: Clc1ccc2c(NCCN3CCN(c4ccnc(N5CCCC5)n4)CC3)ccnc2c1
growth: -62% (active)

molecule: CCN(c1cc(-c2ccc(CN3CCC(/C=C/S(=O)(=O)c4ccccc4)CC3)cc2)cc(C(=O)NCc2c(C)cc(C)[nH]c2=O)c1C)C1CCOCC1
growth: 75.4% (inactive)

molecule: O=C1OCC2=C1C(c1cccc(C(F)(F)F)c1)c1cc3c(cc1N2CCO)OCCO3 (centres undefined)
growth: 65.3% (inactive)

molecule: COc1ccc(/C=C2\COc3ccc(O)c(O)c3C2=O)c(OC)c1OC
growth: 45.6% (inactive)

molecule: CC(=O)OC[C@]12CCC(C)(C)C=C1[C@H]1CC[C@@H]3[C@@]4(C)CCCNC(C)(C)[C@@H]4CC[C@@]3(C)[C@]1(C)CC2
growth: 31.9% (inactive)

// fetch growth given entry CCCN1C(=O)/C(=c2\sc3n(c2=O)NC2C(N=3)N(CC)C(=O)N2CC)c2ccccc21 (centres undefined)
47.5% (inactive)

---

system: RXF 393 renal; assay: NCI-60 one-dose screen, 48 h (100 = growth as untreated, 0 = no growth, -100 = all killed); details: 10 µM
The panel holds about 83,000 compounds, 20% with a hit somewhere; the sample as a whole holds those more often.
// reported growth for each item listed
Reply numerically in %, unit not repeated.

# count of solved cases: 4
chemicalStructure: COc1ccc(C(=O)/C=C/c2ccc(OCc3ccc(Cl)cc3)cc2)cc1OC
unitText: %
growth: 110
//
chemicalStructure: CC(=O)/C=C/c1ccc(OCc2ccc(Cl)cc2)cc1
unitText: %
growth: 105
//
chemicalStructure: CC(=O)/C=C/c1ccc(N(C)Cc2ccc(C(C)(C)C)cc2)cc1
unitText: %
growth: 106
//
chemicalStructure: O=C(/C=C/c1cccc(Oc2ccc(Cl)cc2)c1)c1ccccc1
unitText: %
growth: 101

Could you now consider this next compound?
// fetch growth given entry `COc1ccc(C(=O)/C=C/c2ccc(OCc3cccc(C(F)(F)F)c3)c(OC)c2)cc1OC`
97.7

---

system: MOLT-4 leukemia; test: NCI-60 one-dose screen, 48 h; settings: 10 µM unless noted
The panel holds about 83,000 compounds, 20% with a hit somewhere; the sample as a whole holds those more often. Calls of active or inactive are those of the source. The calls were made as follows: active = growth percent below 10; inactive = the rest.
One label from this list, please: YES for active, NO for inactive

compound: C=C1CC[C@@H]2[C@](C)(COC(C)=O)[C@H](OC(C)=O)CC[C@@]2(C)[C@@H]1CC(Nc1ccc(S(=O)(=O)Nc2nccs2)cc1)C1=CCOC1=O (some centres undefined)
categoryLabel: YES
//
compound: COc1cc(Cl)cc(-c2nn(C(=O)NS(=O)(=O)c3ccc(Cl)cc3)cc2-c2ccncc2)c1
categoryLabel: NO
//
compound: Cc1n(Cc2ccc3ccccc3c2)c(Cl)c(Cl)[n+]1Cc1ccc2ccccc2c1
categoryLabel: NO

Now for another entry.
Answer briefly: the call reported for `O=C(N=Nc1c(O)[nH]c2ccccc12)Nc1ccccc1Cl` in this assay.
NO
